Where these numbers come from: patent US12180192B2

Molecular target: human thyroid receptor alpha ligand-binding domain (LBD) (Homo sapiens, UniProt P10827)
Experiment: TR-FRET thyroid receptor alpha coactivator assay (THR biochemical assay, Assay 1)
Conditions: Table 4, THR-alpha, read-out: Activity category Assay 1 (EC50, THR-alpha agonist activity)
pEC50: −log10 of the molar value.
Measured Endpoint: pEC50

Solved entries:
>>> df
                                   compound                           subject_of_test  measured_endpoint        result
0  Nc1nn(-c2cc(Cl)c(Oc3cc(-c4cccc(Cl)c4)c(=O)[nH]n3)c(Cl)c2)c(=O)[nH]c1=O [Compound 68]  human thyroid receptor alpha ligand-binding domain (LBD) (Homo sapiens, UniProt P10827)              pEC50  6.60 to 7.30
1  CC(C)c1n[nH]c2nnc(Oc3c(Cl)cc(-n4nc(C#N)c(=O)[nH]c4=O)cc3Cl)cc12 [Compound 75A]  human thyroid receptor alpha ligand-binding domain (LBD) (Homo sapiens, UniProt P10827)              pEC50  6.60 to 7.30
2  CC(c1ccccc1)c1cc(Oc2c(Cl)cc(-n3nc(N)c(=O)[nH]c3=O)cc2Cl)n[nH]c1=O (single isomer, unassigned) [Compound 164]  human thyroid receptor alpha ligand-binding domain (LBD) (Homo sapiens, UniProt P10827)              pEC50  6.60 to 7.30
3  Nc1nn(-c2cc(Cl)c(Oc3cc(C45CC(C4)C5)c(=O)[nH]n3)c(Cl)c2)c(=O)[nH]c1=O [Compound 95]  human thyroid receptor alpha ligand-binding domain (LBD) (Homo sapiens, UniProt P10827)              pEC50  6.00 to 6.60
4  Nc1nn(-c2cc(Cl)c(Oc3cc(C4(F)CCCC4)c(=O)[nH]n3)c(Cl)c2)c(=O)[nH]c1=O [Compound 144]  human thyroid receptor alpha ligand-binding domain (LBD) (Homo sapiens, UniProt P10827)              pEC50  6.00 to 6.60

Sample CCc1cccc(-c2cc(Oc3c(Cl)cc(-n4nc(N)c(=O)[nH]c4=O)cc3Cl)n[nH]c2=O)c1 [Compound 71] ; pEC50 observed: 6.60 to 7.30

get_value(item= Nc1nn(-c2cc(Cl)c(Oc3cc(-c4ccc5c(c4)CCCO5)c(=O)[nH]n3)c(Cl)c2)c(=O)[nH]c1=O [Compound 114] , readout=pEC50) returns < 4.60

###

Recorded Emax for the following molecules
Molecular target: THR alpha (Homo sapiens, UniProt P10827)
Construct: expressed in transfected cells; host or cells: HEK293T (ATCC CRL-3216)
Sequence (P10827 1-410 isoform P10827-2): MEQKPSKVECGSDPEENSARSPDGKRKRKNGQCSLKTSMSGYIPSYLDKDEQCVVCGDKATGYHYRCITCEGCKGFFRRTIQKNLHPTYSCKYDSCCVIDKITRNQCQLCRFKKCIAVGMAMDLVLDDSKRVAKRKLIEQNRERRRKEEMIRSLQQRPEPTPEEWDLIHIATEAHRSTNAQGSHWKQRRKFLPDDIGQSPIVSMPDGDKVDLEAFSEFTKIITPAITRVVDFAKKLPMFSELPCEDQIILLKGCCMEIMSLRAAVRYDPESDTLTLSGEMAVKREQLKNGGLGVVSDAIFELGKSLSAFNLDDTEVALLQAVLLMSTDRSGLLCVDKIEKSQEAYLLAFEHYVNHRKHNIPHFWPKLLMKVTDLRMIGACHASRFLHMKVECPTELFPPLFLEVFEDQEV
Sequence (P19793 1-462 partner): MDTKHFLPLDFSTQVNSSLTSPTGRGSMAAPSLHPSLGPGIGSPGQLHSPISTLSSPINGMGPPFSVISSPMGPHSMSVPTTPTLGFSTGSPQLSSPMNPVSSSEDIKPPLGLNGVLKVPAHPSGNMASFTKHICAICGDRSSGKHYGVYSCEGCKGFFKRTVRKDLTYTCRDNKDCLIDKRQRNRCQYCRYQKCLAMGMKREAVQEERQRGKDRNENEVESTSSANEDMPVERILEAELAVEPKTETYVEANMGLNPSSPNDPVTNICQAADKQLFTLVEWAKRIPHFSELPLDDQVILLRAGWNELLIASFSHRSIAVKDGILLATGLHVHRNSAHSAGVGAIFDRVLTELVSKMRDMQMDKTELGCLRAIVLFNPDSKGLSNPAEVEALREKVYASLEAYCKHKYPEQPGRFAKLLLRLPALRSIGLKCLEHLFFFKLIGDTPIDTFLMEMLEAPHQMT
Assay: HEK293T THR alpha/RXR luciferase reporter assay (Assay 2)
Type: cell-based
Conditions: HEK-293T, Table 5; Assay 2; THRα; read-out: Activity category Assay 2 THRα (Emax)
Procedure: HEK293T Reporter THRalpha/Beta/RXR Reporter Assay (Assay 2) The purpose of this assay is to evaluate the effect of compounds on the thyroid hormone nuclear receptor pathway in HEK293T cells. […] Transfected cells are stimulated with test compounds for 18-24 hours before activation of the thyroid hormone pathway is measured via a luciferase read-out. Procedure. […] Percent agonism is calculated using the following equation: 100× (sample-negative control)/(positive control-negative control).

Below, each entry is followed by its recorded Emax result.
                              sample_smiles  measured_endpoint     result
0  Cc1cccc(-c2cc(Oc3c(Cl)cc(-n4nc(N)c(=O)[nH]c4=O)cc3Cl)n[nH]c2=O)c1               Emax  50 to 75%
1  Nc1nn(-c2cc(Cl)c(Oc3cc(-c4ccc5c(c4)CCCO5)c(=O)[nH]n3)c(Cl)c2)c(=O)[nH]c1=O               Emax      < 50%
2  C=C(C)c1cc(Oc2c(Cl)cc(-n3nc(N)c(=O)[nH]c3=O)cc2Cl)n[nH]c1=O               Emax      < 50%

# evaluate next
Emax reported for this molecule Cc1cc(-n2nc(C#N)c(=O)[nH]c2=O)cc(C)c1Cc1ccc2c(c1)C1(CC1)C(=O)N2 : < 50%

###

Molecular target: human thyroid receptor alpha ligand-binding domain (LBD) (Homo sapiens)
Test: TR-FRET thyroid receptor alpha coactivator assay (THR biochemical assay, Assay 1)
Details: Table 4, THR-alpha, read-out: Activity category Assay 1 (EC50, THR-alpha agonist activity)
pEC50: −log10 of the molar value.
Measured Endpoint: pEC50

Worked examples follow.
>>> print(df.to_string())
                                   compound                           subject_of_test        result
0  Nc1nn(-c2cc(Cl)c(Oc3cc(-c4cc5ccccn5n4)c(=O)[nH]n3)c(Cl)c2)c(=O)[nH]c1=O [Compound 130]  human thyroid receptor alpha ligand-binding domain (LBD) (Homo sapiens)  4.60 to 6.00
1  Cc1cc(-n2nc(C#N)c(=O)[nH]c2=O)cc(C)c1Cc1ccc2[nH]nc(C(C)C)c2c1 [Compound 57]  human thyroid receptor alpha ligand-binding domain (LBD) (Homo sapiens)        > 7.30
2  CO[C@H]1C[C@@H](c2cc(Oc3c(Cl)cc(-n4nc(N)c(=O)[nH]c4=O)cc3Cl)n[nH]c2=O)C1 [Compound 103]  human thyroid receptor alpha ligand-binding domain (LBD) (Homo sapiens)        < 4.60
3  Cc1cc(-n2nc(N)c(=O)[nH]c2=O)cc(C)c1Cc1ccc2[nH]c(=O)n(C(C)C)c2c1 [Compound 149]  human thyroid receptor alpha ligand-binding domain (LBD) (Homo sapiens)        > 7.30
4  CC1(C)C(=O)Nc2nnc(Oc3c(Cl)cc(-n4nc(C#N)c(=O)[nH]c4=O)cc3Cl)cc21 [Compound 74]  human thyroid receptor alpha ligand-binding domain (LBD) (Homo sapiens)  4.60 to 6.00

Entry under test: Cc1cc(-c2cc(Oc3c(Cl)cc(-n4ncc(=O)[nH]c4=O)cc3Cl)n[nH]c2=O)ccn1 [Compound 141] . Its pEC50 was < 4.60

Briefly, pEC50 measured for Cc1cc2cc(Oc3c(Cl)cc(-n4nc(C#N)c(=O)[nH]c4=O)cc3Cl)ccc2[nH]c1=O [Compound 154] : < 4.60

The value of pEC50 measured for the compound CC(C)/C=C1\C(=O)Nc2ccc(Oc3c(Cl)cc(-n4nc(N)c(=O)[nH]c4=O)cc3Cl)cc21 [Compound 147] turned out to be > 7.30

Recorded result, CCCc1c[nH]c2ccc(Oc3c(Cl)cc(-n4nc(C#N)c(=O)[nH]c4=O)cc3Cl)nc12 [Compound 19] , pEC50: < 4.60

Reported pEC50 for Nc1nn(-c2cc(Cl)c(Oc3cc(C4CCc5ccccc5C4)c(=O)[nH]n3)c(Cl)c2)c(=O)[nH]c1=O (centres unmarked) [Compound 98] was < 4.60

The recorded pEC50 for CC(C)c1c[nH]c2nnc(Oc3c(Cl)cc(-n4nc(C#N)c(=O)[nH]c4=O)cc3Cl)cc12 [Compound 52] is 4.60 to 6.00

Value of pEC50 reported for the compound COC(=O)c1c[nH]c2ccc(Oc3c(Cl)cc(-n4nc(C#N)c(=O)[nH]c4=O)cc3Cl)cc12 [Compound 4] is < 4.60

Lab note: measured pEC50 of N#Cc1nn(-c2cc(Cl)c(Oc3ccc4[nH]cc(C(=O)N5CCc6ccccc6C5)c4c3)c(Cl)c2)c(=O)[nH]c1=O [Compound 22] was < 4.60

Record Cc1cc(-n2nc(N)c(=O)[nH]c2=O)cc(C)c1Oc1cc(C(C)C)c(=O)[nH]n1 [Compound 38] , field pEC50: 4.60 to 6.00
